A short record of pIC50 observed with HPK1 protein (Homo sapiens, UniProt Q92918) follows.
Sequence (Q92918 1-346 limits assumed): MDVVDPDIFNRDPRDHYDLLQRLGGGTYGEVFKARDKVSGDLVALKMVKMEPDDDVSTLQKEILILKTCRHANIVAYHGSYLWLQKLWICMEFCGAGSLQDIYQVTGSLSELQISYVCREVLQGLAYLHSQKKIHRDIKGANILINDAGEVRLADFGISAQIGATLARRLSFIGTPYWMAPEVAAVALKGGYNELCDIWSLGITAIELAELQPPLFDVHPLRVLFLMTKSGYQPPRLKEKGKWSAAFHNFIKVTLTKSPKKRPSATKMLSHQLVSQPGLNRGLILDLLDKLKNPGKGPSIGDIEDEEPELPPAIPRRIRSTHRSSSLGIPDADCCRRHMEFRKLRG
pIC50: −log10 of the molar value.

Some solved cases for reference:
compound: O=C1CCC(c2ccc(N3CCN(CCCN4CCN(c5cccc(-c6cnc7[nH]cc(C8CC8)c7c6Cl)c5)C(=O)C4)CC3)cc2)C(=O)N1 (stereo not drawn)
pIC50: ≥ 8.00
//
compound: O=C1CCC(N2Cc3cc(C4CCN(CCCN5CCN(c6cccc(-c7cnc8[nH]cc(C9CC9)c8c7Cl)n6)C(=O)C5)CC4)ccc3C2=O)C(=O)N1 (stereo not drawn)
pIC50: ≥ 8.00
//
compound: O=C1CCC(N2C(=O)c3cc(F)c(N4CCN(CCCN5CCN(c6cccc(-c7cnc8[nH]cc(C9CC9)c8c7Cl)c6)C(=O)C5)CC4)cc3C2=O)C(=O)N1 (stereo not drawn)
pIC50: 6.00 to 7.00
//
compound: CCc1c[nH]c2ncc(-c3cccc(N4CCN(CCCN5CCN(c6ccc7c(N8CCC(=O)NC8=O)cccc7c6)CC5)CC4=O)c3)c(Cl)c12
pIC50: 7.00 to 8.00
//
compound: O=C1CCC(N2Cc3cc(N4CCN(CCCS(=O)(=O)N5CCN(c6cccc(-c7cnc8[nH]cc(C9CC9)c8c7Cl)c6)C(=O)C5)CC4)ccc3C2=O)C(=O)N1 (stereo not drawn)
pIC50: ≥ 8.00

Now look at this entry.
Q) Param readout= pIC50; system= HPK1 protein (Homo sapiens, UniProt Q92918); entry= O=C1CCC(Nc2ccc(N3CCN(CCCN4CCN(c5cccc(-c6cnc7[nH]cc(C8CC8)c7c6Cl)c5)C(=O)C4)CC3)c(F)c2)C(=O)N1 (stereo not drawn) ; returns value.
A) ≥ 8.00
